Task for the reader: assign each of the following variants its reported self-cleavage.
B1: HDV Ribozyme (parent)
chain: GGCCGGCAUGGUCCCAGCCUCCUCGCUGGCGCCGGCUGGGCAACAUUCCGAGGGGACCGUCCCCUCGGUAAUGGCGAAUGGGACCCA

Variants of: B1
Test: self-cleavage, relative activity (ratio to wild type); higher = more cleavage; co-transcriptional
Could you respond with only the numeric value?

Consider the variant G53U U69A and give its measured self-cleavage. 0.969

Consider the variant G17C C85U and give its measured self-cleavage. 0.156

Consider the variant C4A G34C and give its measured self-cleavage. 0.261

Consider the variant C44G A70G and give its measured self-cleavage. 0.525

Consider the variant G10U C15A and give its measured self-cleavage. 0.222

Consider the variant G6U C61A and give its measured self-cleavage. 0.717

Consider the variant C26U C64A and give its measured self-cleavage. 0.979

Consider the variant G10U C85A and give its measured self-cleavage. 1.15

Consider the variant C32G A56G and give its measured self-cleavage. 0.0852

Consider the variant C44G G52C and give its measured self-cleavage. 0.724

Consider the variant G73A C86G and give its measured self-cleavage. 0.609

Consider the variant U47A C49G and give its measured self-cleavage. 1.42

Consider the variant G67U U72G and give its measured self-cleavage. 0.389

Consider the variant C21U G54A and give its measured self-cleavage. 0.159

Consider the variant G54C A70U and give its measured self-cleavage. 0.81

Consider the variant C48G U60C and give its measured self-cleavage. 0.969

Consider the variant G68A A83U and give its measured self-cleavage. 0.424

Consider the variant U9C G81U and give its measured self-cleavage. 0.237

Consider the variant C66A G67U and give its measured self-cleavage. 0.878

Consider the variant C41A C57A and give its measured self-cleavage. 1.02

Consider the variant C19A C58G and give its measured self-cleavage. 0.0519

Consider the variant U46C A77C and give its measured self-cleavage. 0.375

Consider the variant C44A C63G and give its measured self-cleavage. 0.831

Consider the variant C7A A70U and give its measured self-cleavage. 0.356

Consider the variant C3U G52U and give its measured self-cleavage. 0.723

Consider the variant G1U G59A and give its measured self-cleavage. 0.442

Consider the variant C30A U69G and give its measured self-cleavage. 0.469

Consider the variant G25C U79C and give its measured self-cleavage. 0.0923

Consider the variant G2C A70G and give its measured self-cleavage. 0

Consider the variant C19G G40A and give its measured self-cleavage. 0.0573

Consider the variant C18G G31C and give its measured self-cleavage. 0.0449

Consider the variant A42G G74U and give its measured self-cleavage. 0.0791

Consider the variant G34U U79C and give its measured self-cleavage. 0.201

Consider the variant G55A A87G and give its measured self-cleavage. 0.966

Consider the variant G54A A78U and give its measured self-cleavage. 0.245

Consider the variant C61A C64G and give its measured self-cleavage. 0.791

Consider the variant C30G G35C and give its measured self-cleavage. 0.198

Consider the variant C4A A16U and give its measured self-cleavage. 0.0665

Consider the variant G38C G67C and give its measured self-cleavage. 0.157

Consider the variant C44G C57U and give its measured self-cleavage. 0.745

Consider the variant U65G U69A and give its measured self-cleavage. 1.23

Consider the variant C13A A51G and give its measured self-cleavage. 0.148

Consider the variant C14U G59U and give its measured self-cleavage. 0.997

Consider the variant C13U C58A and give its measured self-cleavage. 0.665

Consider the variant C22G C58U and give its measured self-cleavage. 0.172

Consider the variant G40A A83G and give its measured self-cleavage. 0.573

Consider the variant G5U U65G and give its measured self-cleavage. 0.475

Consider the variant C13G G31A and give its measured self-cleavage. 0.0923

Consider the variant G6C G50U and give its measured self-cleavage. 0.17

Consider the variant U20G G76A and give its measured self-cleavage. 0.214

Consider the variant A42C A71U and give its measured self-cleavage. 0.166

Consider the variant G73U A78U and give its measured self-cleavage. 0.119

Consider the variant C4U G29U and give its measured self-cleavage. 0.0302

Consider the variant U37A C66G and give its measured self-cleavage. 0.158

Consider the variant C7G C85U and give its measured self-cleavage. 0.32

Consider the variant C4U G82U and give its measured self-cleavage. 0.119

Consider the variant G31C C41U and give its measured self-cleavage. 0.138

Consider the variant C14G and give its measured self-cleavage. 0.724

Consider the variant C26G U72C and give its measured self-cleavage. 0.862

Consider the variant C7A C14U and give its measured self-cleavage. 0.447

Consider the variant U9A G31A and give its measured self-cleavage. 0.554

Consider the variant G39C C86A and give its measured self-cleavage. 0.261

Consider the variant G34C G73A and give its measured self-cleavage. 0.106

Consider the variant A77U G82A and give its measured self-cleavage. 0.271

Consider the variant G31A C57U and give its measured self-cleavage. 0.421

Consider the variant C21G C48G and give its measured self-cleavage. 0.115

Consider the variant G25A G55U and give its measured self-cleavage. 0.128

Consider the variant C19G C26U and give its measured self-cleavage. 0.249

Consider the variant U46A C64U and give its measured self-cleavage. 0.649

Consider the variant U27A C66G and give its measured self-cleavage. 0.755

Consider the variant G40U C57G and give its measured self-cleavage. 0.712

Consider the variant U37G C48A and give its measured self-cleavage. 0.277

Consider the variant C13U G52C and give its measured self-cleavage. 0.639

Consider the variant G2U C33U and give its measured self-cleavage. 0.0422

Consider the variant G10U C86G and give its measured self-cleavage. 0.445

Consider the variant U47C A78G and give its measured self-cleavage. 0.807

Consider the variant G10A G68U and give its measured self-cleavage. 0.562

Consider the variant U23C A56C and give its measured self-cleavage. 0.942

Consider the variant C13U G38U and give its measured self-cleavage. 0.149

Consider the variant U69G G76A and give its measured self-cleavage. 0.855

Consider the variant G55U C57A and give its measured self-cleavage. 1.12

Consider the variant G67U G68C and give its measured self-cleavage. 0.962

Consider the variant G11C A42G and give its measured self-cleavage. 0.161

Consider the variant C4U C18A and give its measured self-cleavage. 0

Consider the variant G2A G6C and give its measured self-cleavage. 0

Consider the variant U37A U60C and give its measured self-cleavage. 0.192

Consider the variant A16U A42U and give its measured self-cleavage. 0.465

Consider the variant C7G A43G and give its measured self-cleavage. 0

Consider the variant C14U G73A and give its measured self-cleavage. 0.831

Consider the variant U60C C86U and give its measured self-cleavage. 0.88

Consider the variant C18A A43U and give its measured self-cleavage. 0.0339
